Biological target: DhXR N305A mutant (Debaryomyces hansenii, UniProt Q6BLI9, N305A)
Assay: Fluorescence quenching titration, ligand binding to DhXR N305A mutant
The entries below come with measured Kd values attached.

Molecule smiles	Kd
NC(=O)C1=CN([C@@H]2O[C@H](COP(=O)(O)OP(=O)(O)OC[C@H]3O[C@@H](n4cnc5c(N)ncnc54)[C@H](OP(=O)(O)O)[C@@H]3O)[C@@H](O)[C@H]2O)C=CC1	0.0083 mM
O=C[C@H](O)[C@@H](O)[C@H](O)CO	6.4 mM

---

The entries below come with measured Kd values attached.
Target: UniProtKB Q6BLI9
Assay: Tryptophan fluorescence quenching titration, ligand binding to apo-DhXR wild type
Details: wild type apo-DhXR, first site, 25 °C; read-out: Kd1,int
Property label: Kd (mM)

>>> print(df.to_string())
                                   compound            system  number
0  C[C@H](O)[C@H](O)[C@@H](O)[C@@H](O)C=O [L-rhamnose]  UniProtKB Q6BLI9      14
1  OC[C@@H](O)[C@H](O)[C@@H](O)CO [Xylitol, xylitol]  UniProtKB Q6BLI9     8.2

---

Molecular target: apo-DhXR (wild type xylose reductase) (Debaryomyces hansenii, UniProt Q6BLI9)
Experiment: Tryptophan fluorescence quenching titration, ligand binding to apo-DhXR wild type
Conditions: Kd1,int, wild type apo-DhXR, first site, 25 °C
pKd: −log10 of the molar value.
Property label: pKd

>>> print(df.to_string())
                            molecule_smiles  number
0  OC[C@H]1O[C@@](CO)(O[C@H]2O[C@H](CO)[C@@H](O)[C@H](O)[C@H]2O)[C@@H](O)[C@@H]1O    2.14

---

Target: apo-DhXR (wild type xylose reductase) (Debaryomyces hansenii, UniProt Q6BLI9)
Experiment: Tryptophan fluorescence quenching titration, ligand binding to apo-DhXR wild type
Details: Kd1,int, wild type apo-DhXR, first site, NADPH
Property label: Kd (nM)

Compound	System	Property label	Number
NC(=O)C1=CN([C@@H]2O[C@H](COP(=O)(O)OP(=O)(O)OC[C@H]3O[C@@H](n4cnc5c(N)ncnc54)[C@H](OP(=O)(O)O)[C@@H]3O)[C@@H](O)[C@H]2O)C=CC1 [NADPH]	apo-DhXR (wild type xylose reductase) (Debaryomyces hansenii, UniProt Q6BLI9)	Kd	1100

---

Biological target: DhXR D42A mutant (Debaryomyces hansenii, UniProt Q6BLI9, D42A)
Sequence (Q6BLI9 1-317 D42A): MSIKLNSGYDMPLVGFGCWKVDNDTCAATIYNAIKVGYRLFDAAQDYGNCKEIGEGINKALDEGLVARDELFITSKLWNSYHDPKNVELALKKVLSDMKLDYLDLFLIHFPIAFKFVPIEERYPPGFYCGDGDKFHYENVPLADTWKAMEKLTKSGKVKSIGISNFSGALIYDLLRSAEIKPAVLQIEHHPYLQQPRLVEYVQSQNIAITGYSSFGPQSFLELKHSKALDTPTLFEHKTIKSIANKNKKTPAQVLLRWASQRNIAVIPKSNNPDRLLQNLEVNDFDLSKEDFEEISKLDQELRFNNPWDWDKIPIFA
Experiment: Fluorescence quenching titration, ligand binding to DhXR D42A mutant
Details: read-out: Kd2,int; D42A, second site
Property label: Kd (mM)

>>> df
                                   molecule  number
0  O=C[C@H](O)[C@@H](O)[C@H](O)CO [D-xylose]    47.6

---

Molecular target: DhXR Y47A mutant (Debaryomyces hansenii, UniProt Q6BLI9, Y47A)
Assay: biochemical
Assay type: binding
pKd: −log10 of the molar value.
The entries below come with measured pKd values attached.
Property label: pKd

Molecule	Property label	Number
O=C[C@H](O)[C@@H](O)[C@H](O)CO [D-xylose]	pKd	1.89
O=C[C@H](O)[C@H](O)[C@H](O)CO [D-ribose]	pKd	1.92
NC(=O)C1=CN([C@@H]2O[C@H](COP(=O)(O)OP(=O)(O)OC[C@H]3O[C@@H](n4cnc5c(N)ncnc54)[C@H](OP(=O)(O)O)[C@@H]3O)[C@@H](O)[C@H]2O)C=CC1 [NADPH]	pKd	5.00
OC[C@H]1O[C@@](CO)(O[C@H]2O[C@H](CO)[C@@H](O)[C@H](O)[C@H]2O)[C@@H](O)[C@@H]1O [Sucrose, sucrose]	pKd	1.96

---

Target: DhXR H109A mutant (Debaryomyces hansenii, UniProt Q6BLI9, H109A)
Assay: biochemical
Type: binding
pKd: −log10 of the molar value.
The entries below come with measured pKd values attached.

Molecule smiles	pKd
O=C[C@H](O)[C@@H](O)[C@H](O)CO	1.88
OC[C@H]1O[C@@](CO)(O[C@H]2O[C@H](CO)[C@@H](O)[C@H](O)[C@H]2O)[C@@H](O)[C@@H]1O	2.30
O=C[C@H](O)[C@H](O)[C@H](O)CO	1.89
NC(=O)C1=CN([C@@H]2O[C@H](COP(=O)(O)OP(=O)(O)OC[C@H]3O[C@@H](n4cnc5c(N)ncnc54)[C@H](OP(=O)(O)O)[C@@H]3O)[C@@H](O)[C@H]2O)C=CC1	5.26

---

Biological target: DhXR N305A mutant (Debaryomyces hansenii, UniProt Q6BLI9, N305A)
Assay: Fluorescence quenching titration, ligand binding to DhXR N305A mutant
Conditions: read-out: Kd2,int; N305A, second site, NADPH
pKd: −log10 of the molar value.

Molecule	System	pKd
NC(=O)C1=CN([C@@H]2O[C@H](COP(=O)(O)OP(=O)(O)OC[C@H]3O[C@@H](n4cnc5c(N)ncnc54)[C@H](OP(=O)(O)O)[C@@H]3O)[C@@H](O)[C@H]2O)C=CC1 [NADPH]	DhXR N305A mutant (Debaryomyces hansenii, UniProt Q6BLI9, N305A)	4.05

---

Target: DhXR K76A mutant (Debaryomyces hansenii, UniProt Q6BLI9, K76A)
Assay: biochemical
Assay type: binding
Property label: Kd (mM)

Compound	Property label	Number
O=C[C@H](O)[C@@H](O)[C@H](O)CO [D-xylose]	Kd	12.8
NC(=O)C1=CN([C@@H]2O[C@H](COP(=O)(O)OP(=O)(O)OC[C@H]3O[C@@H](n4cnc5c(N)ncnc54)[C@H](OP(=O)(O)O)[C@@H]3O)[C@@H](O)[C@H]2O)C=CC1 [NADPH]	Kd	0.01
OC[C@H]1O[C@@](CO)(O[C@H]2O[C@H](CO)[C@@H](O)[C@H](O)[C@H]2O)[C@@H](O)[C@@H]1O [Sucrose, sucrose]	Kd	10
O=C[C@H](O)[C@H](O)[C@H](O)CO [D-ribose]	Kd	10

---

Molecular target: DhXR D10A mutant (Debaryomyces hansenii, UniProt Q6BLI9, D10A)
Experiment: Fluorescence quenching titration, ligand binding to DhXR D10A mutant
The entries below come with measured Kd values attached.

Molecule smiles	System	Kd / mM
O=C[C@H](O)[C@@H](O)[C@H](O)CO	DhXR D10A mutant (Debaryomyces hansenii, UniProt Q6BLI9, D10A)	6.7
NC(=O)C1=CN([C@@H]2O[C@H](COP(=O)(O)OP(=O)(O)OC[C@H]3O[C@@H](n4cnc5c(N)ncnc54)[C@H](OP(=O)(O)O)[C@@H]3O)[C@@H](O)[C@H]2O)C=CC1	DhXR D10A mutant (Debaryomyces hansenii, UniProt Q6BLI9, D10A)	0.0033

---

Biological target: apo-DhXR (wild type xylose reductase) (Debaryomyces hansenii, UniProt Q6BLI9)
Test: Tryptophan fluorescence quenching titration, ligand binding to apo-DhXR wild type
Conditions: read-out: Kd2,int; wild type apo-DhXR, second site, NADPH

Molecule smiles	System	Unit spec	Kd
NC(=O)C1=CN([C@@H]2O[C@H](COP(=O)(O)OP(=O)(O)OC[C@H]3O[C@@H](n4cnc5c(N)ncnc54)[C@H](OP(=O)(O)O)[C@@H]3O)[C@@H](O)[C@H]2O)C=CC1	apo-DhXR (wild type xylose reductase) (Debaryomyces hansenii, UniProt Q6BLI9)	µM	3.9
